assay: uptake by the liver; type: in vivo; settings: liver; read-out: uptaken by liver
Measurement Name: hepatic extraction ratio

1. C[C@H](CCC(=O)O)[C@H]1CC[C@H]2[C@@H]3[C@@H](O)C[C@@H]4C[C@H](O)CC[C@]4(C)[C@H]3CC[C@]12C    0.5

====

assay: pKa
Measurement Name: pKa

1) C[C@H](CCC(=O)NCCS(=O)(=O)O)[C@H]1CC[C@H]2[C@@H]3[C@@H](O)C[C@@H]4C[C@H](O)CC[C@]4(C)[C@H]3CC[C@]12C    ~1

====

Conditions: in vivo
Excerpt: GUDCA is well absorbed by the intestine through a double mechanism, i.e. active and passive, transported to the liver by the portal system and uptaken. It passes rapidly through the liver without being metabolized and is then secreted in the bile with high transport rate and efficiency.
Measurement Name: Fa (%)

1) C[C@H](CCC(=O)NCC(=O)O)[C@H]1CC[C@H]2[C@@H]3[C@@H](O)C[C@@H]4C[C@H](O)CC[C@]4(C)[C@H]3CC[C@]12C    100
2) C[C@H](CCC(=O)O)[C@H]1CC[C@H]2[C@@H]3[C@@H](O)C[C@@H]4C[C@H](O)CC[C@]4(C)[C@H]3CC[C@]12C    50

====

experiment: physchem
Measurement Name: logP

1) C[C@H](CCC(=O)NCC(=O)O)[C@H]1CC[C@H]2[C@@H]3[C@@H](O)C[C@@H]4C[C@H](O)CC[C@]4(C)[C@H]3CC[C@]12C    2
